Data origin: PubChem BioAssay (NCI)

test: NCI Yeast Anticancer Drug Screen. Data for the bub3 strain (AID 167); details: S. cerevisiae bub3 mutant strain, at 5.0 µM (retest, dose inferred, filed as 0.5)
About 79,000 compounds went through this panel and 15% of them were active in at least one assay; those are over-represented in the sample as a whole. Activity calls are given as the source filed them. Cut-off read from the data, not from the text of the source: active = growth inhibition above about 70%; inactive = the rest.
Reply using exactly one outcome from 1 (yes) (active), 0 (no) (inactive)

q: Hi team, can someone confirm the assay call for CN1CCc2ccccc2C1Cc1ccccc1NC(=O)c1sc2ccccc2c1Cl (configuration not stated) ?
a: 0 (no)

q: Hi, do you know how CC[C@@]1(O)C(=O)OCc2c1cc1n(c2=O)Cc2cc3c(N)cccc3nc2-1 came out in this test?
a: 0 (no)

q: How was CCCCCCCCNC(=O)C1=C(C)NC(C)=C(C(=O)NCCCCCCCC)C1 classified in this test?
a: 0 (no)

q: Test call for this molecule, please: CCCCc1cc(O)ccc1O
a: 0 (no)

q: How was COC(=O)c1ccc(NCC2=CC(=O)C=CC2=O)cc1O classified in this test?
a: 0 (no)

q: So what was the verdict on CCOC(=O)C1=C(C(=O)c2ccccc2)C(c2ccccc2[N+](=O)[O-])C(C(=O)c2ccccc2)=C(C(=O)OCC)N1 in this test?
a: 0 (no)

q: Lab log entry: CCOC(=O)[C@H]1Nc2ccccc2C2c3ccccc3CC21 (some centres not stated) — outcome as called in the assay?
a: 0 (no)

q: Please indicate how the test categorized CCCCCCCCCC/C=C\C(=O)O .
a: 0 (no)

q: Tell me the assay call for COc1ccc2sc3cccc(NCCN(C)C)c3c(=O)c2c1 please.
a: 0 (no)

q: How was CCC(=O)Oc1c(Cl)cc(Cl)c2ccccc12 classified in this test?
a: 0 (no)

q: # lookup: test call for NNC(=O)CCc1ccc2ccc3ccccc3c2c1
a: 0 (no)

q: How was COc1ccc(O)c(/C=N\Nc2ccccc2)c1 classified in this test?
a: 0 (no)

q: Call for entry O=C1C=CC(=C(c2ccccc2)c2ccccc2)c2ccccc21 :
a: 0 (no)

q: // return assay outcome for CCN(CC)C(C)(C)C(=O)/C=C/c1ccccc1
a: 0 (no)

q: Please let me know the test result on file for CC1=C(C)Cc2c(O)ccc(O)c2C1 .
a: 1 (yes)

q: Name the outcome recorded for N#CC(C(=O)Nc1ccccc1)C1=C(Cl)C(=O)c2ccccc2C1=O (configuration not stated) in the assay.
a: 0 (no)

q: Tell me the recorded outcome of this test for c1ccc2c(c1)sc1cc3ccncc3cc12 .
a: 0 (no)
